# credit: PubChem BioAssay (NCATS)

assay.comment: Cell Viability - LYMP2-004 (AID 966);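 note: cells exposed to compound for 24 h; nearly all actives have a fitted effect of over 65% in size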
condition.details: LYMP2-004 lymphoblastoid cell viability, qHTS; series mostly up to 92.2 µM
Results filed as inconclusive are left out. Activity calls are given as the source filed them. Calls come from the whole dose curve; as a rule, active = well fitted cell-killing curve with a large enough effect; inconclusive = small, poorly fitted or top-dose-only effect, or effect the other way; inactive = no such curve, though single readings can be large or run the other way. Peptide text beside a SMILES is read from it.
Allowed answers: true (1) = active, false (0) = inactive

Illustrative cases are given below, each with its answer.
>>> print(df.to_string())
                                compound  label_value
0             c1ccc2[nH]c(-c3cscn3)nc2c1    false (0)
1  CN(C)c1ccc2nc3ccc(=[N+](C)C)cc-3sc2c1     true (1)

Which result was noted for this compound in the test: Cc1cc(O)c2c(c1)C(=O)c1cc(O)cc(O)c1C2=O
false (0)

Which result was noted for this compound in the test: COC(=O)[C@H](Cc1ccccc1)NC(=O)[C@@H](N)CC(=O)O (H-Asp-Phe-OMe)
false (0)

Which result was noted for this compound in the test: CCCCC(CC)COC(=O)C(C#N)=C(c1ccccc1)c1ccccc1 (stereo unspecified)
false (0)

Which result was noted for this compound in the test: COc1c2occc2cc2ccc(=O)oc12
false (0)

###

assay.comment: Quantitative High-Throughput drug screen in 47 multiple myeloma cell lines against the NCATS MIPE library collection: U266_ATCC cell viability assay (AID 1919864); note: nearly all actives have a fitted effect of over 35% in size
condition.details: U266 myeloma viability, CellTiter-Glo ATP luminescence, 48 h; series mostly up to 45.8 µM
Records with an inconclusive call do not appear. The source made the active and inactive calls. Calls come from the whole dose curve; as a rule, active = well fitted cell-killing curve with a large enough effect; inconclusive = small, poorly fitted or top-dose-only effect, or effect the other way; inactive = no such curve, though single readings can be large or run the other way.
Allowed answers: YES (active), NO (inactive)

Illustrative cases are given below, each with its answer.
compound	label.value
CN(C)CCc1c[nH]c2ccc(Cn3cncn3)cc12	NO
CCC[C@@H]1C[C@@H](C(=O)N[C@@H]([C@H]2O[C@H](SC)[C@H](O)[C@@H](O)[C@H]2O)[C@@H](C)O)N(C)C1	NO
COc1c2occc2cc2ccc(=O)oc12	NO
CC1(C)CCC(C)(C)c2cc(NC(=O)c3ccc(C(=O)O)cc3)ccc21	NO
O=C(O)CCNC(=O)c1ccc(N=Nc2ccc(O)c(C(=O)O)c2)cc1	YES
Oc1ccc(OCc2ccccc2)cc1	NO
CCN(CC)CCOc1ccc(Cc2ccccc2)cc1	YES
COc1cc2nc(N3CCN(C(=O)C4CCCO4)CC3)nc(N)c2cc1OC (stereo unspecified)	NO
CCN(CCO)CCCC(C)Nc1ccnc2cc(Cl)ccc12 (stereo unspecified)	NO
CC(C)c1ccc2c(c1)c(SC(C)(C)C)c(CC(C)(C)C(=O)O)n2Cc1ccc(Cl)cc1	YES

Which result was noted for this compound in the test: Cc1nccn1CC1CCc2c(c3ccccc3n2C)C1=O (stereo unspecified)
YES

Which result was noted for this compound in the test: O=Nc1c(-c2c(O)[nH]c3cc(Br)ccc23)[nH]c2ccccc12
YES

Which result was noted for this compound in the test: Cc1cc2cc3c(C)cc(=O)oc3c(C)c2o1
YES

Which result was noted for this compound in the test: COCCCOc1ccnc(CS(=O)c2nc3ccccc3[nH]2)c1C (stereo unspecified)
NO

Which result was noted for this compound in the test: CC(=O)O[C@H]1C(=O)[C@@]2(C)C([C@H](OC(=O)c3ccccc3)[C@]3(O)C[C@H](OC(=O)[C@H](O)[C@@H](NC(=O)c4ccccc4)c4ccccc4)C(C)=C1C3(C)C)[C@]1(OC(C)=O)CO[C@@H]1C[C@@H]2O (stereo partly specified)
NO

###

Tested on: CP256
assay.comment: qHTS profiling for inhibitors of Plasmodium falciparum proliferation (AID 504749); note: nearly all actives have a fitted effect of over 60% in size
condition.details: P. falciparum in erythrocytes, SYBR Green DNA, 72 h; series mostly up to 28.7 µM
Inconclusive results are not listed. The source made the active and inactive calls. Calls come from the whole dose curve; as a rule, active = well fitted inhibition curve with a large enough effect; inconclusive = small, poorly fitted or top-dose-only effect; inactive = flat fitted curve, though single readings scatter.
Allowed answers: active, inactive

In [3]: df
Out[3]:
                                   compound  label_value
0  COc1ccc(C2(C#N)CCC(C(=O)O)CC2)cc1OC1CCCC1 (centres undefined)     inactive
1  CN1C(C(=O)Nc2ccccn2)=C(O)c2sccc2S1(=O)=O     inactive
2      O=C(O)c1cccc(-c2noc(-c3ccccc3F)n2)c1     inactive
3  CCN(CCO)CCCC(C)Nc1ccnc2cc(Cl)ccc12 (centres undefined)     inactive
4  CCOc1cc(CC(=O)N[C@@H](CC(C)C)c2ccccc2N2CCCCC2)ccc1C(=O)O     inactive

Which result was noted for this compound in the test: CC1(C)CCC(C)(C)c2cc(NC(=O)c3ccc(C(=O)O)cc3)ccc21
inactive

Which result was noted for this compound in the test: Cc1cccc(C)c1OCC(=O)N[C@@H](Cc1ccccc1)[C@@H](O)C[C@H](Cc1ccccc1)NC(=O)[C@H](C(C)C)N1CCCNC1=O
active

Which result was noted for this compound in the test: CCC[C@@H]1C[C@@H](C(=O)N[C@@H]([C@H]2O[C@H](SC)[C@H](O)[C@@H](O)[C@H]2O)[C@@H](C)O)N(C)C1
active

Which result was noted for this compound in the test: O=C(NC(Cc1cc(=O)[nH]c2ccccc12)C(=O)O)c1ccc(Cl)cc1 (centres undefined)
inactive

###

Test system: CRL-7250
assay.comment: Cytotoxic Profiling of Annotated Libraries Using Quantitative High-Throughput Screening (AID 1296008); note: nearly all actives have a fitted effect of over 60% in size; note: potency is the fitted concentration of half-maximal effect
condition.details: Five cell lines viability, CellTiter-Glo ATP luminescence, 48-72 h
Records with an inconclusive call do not appear. Active and inactive are the calls of the source. Calls come from the whole dose curve; as a rule, active = well fitted inhibition curve with a large enough effect; inconclusive = small, poorly fitted or top-dose-only effect; inactive = flat fitted curve, though single readings scatter.
recorded.metric: Potency

>>> df
                                   compound    value_measured
0       COc1cc(OC)c(C(=O)CCCN2CCCC2)c(OC)c1          inactive
1  COc1ccccc1N1CCN(CCN(C(=O)C2CCCCC2)c2ccccn2)CC1          inactive
2  COc1cc2nc(N3CCN(C(=O)C4CCCO4)CC3)nc(N)c2cc1OC (stereo unspecified)          inactive
3  Cc1ccc(Nc2nccc(N(C)c3ccc4c(C)n(C)nc4c3)n2)cc1S(N)(=O)=O  6.51 µM (active)
4    COC1=C(OC)C(=O)C(CCCCCCCCCCO)=C(C)C1=O          inactive

Field: Potency (CRL-7250). Entry: O=P(O)(O)C(O)(Cn1ccnc1)P(=O)(O)O
inactive

Field: Potency (CRL-7250). Entry: CC(=O)Nc1ccc(O)cc1
inactive

Field: Potency (CRL-7250). Entry: Nc1nc(N)c(N=O)c(OCC2CCCCC2)n1
14.8 µM (active)

Field: Potency (CRL-7250). Entry: CC(S)C(=O)NCC(=O)O (stereo unspecified)
inactive

Field: Potency (CRL-7250). Entry: CN(C)c1ccc(O)c2c1C[C@H]1C[C@H]3[C@H](N(C)C)C(=O)C(C(N)=O)=C(O)[C@@]3(O)C(=O)C1=C2O
inactive

Field: Potency (CRL-7250). Entry: O=C(O)CCNC(=O)c1ccc(N=Nc2ccc(O)c(C(=O)O)c2)cc1
inactive

###

assay.comment: Quantitative High-Throughput drug screen in 47 multiple myeloma cell lines against the NCATS MIPE library collection: KMS11_JCRBsus cell viability assay (AID 1919873); note: nearly all actives have a fitted effect of over 50% in size
condition.details: KMS11 myeloma viability, CellTiter-Glo ATP luminescence, 48 h; series mostly up to 45.8 µM
Results filed as inconclusive are left out. Active and inactive are the calls of the source. Calls follow the shape of the dose curve; as a rule, active = well fitted cell-killing curve with a large enough effect; inconclusive = small, poorly fitted or top-dose-only effect, or effect the other way; inactive = no such curve, though single readings can be large or run the other way.
Allowed answers: active, inactive

>>> df
                                   compound  label_value
0  CCC1=C(C)CN(C(=O)NCCc2ccc(S(=O)(=O)NC(=O)NC3CCC(C)CC3)cc2)C1=O (stereo unspecified)     inactive
1  O=Nc1c(-c2c(O)[nH]c3cc(Br)ccc23)[nH]c2ccccc12       active
2                 CCCc1cc(=O)[nH]c(=S)[nH]1     inactive
3  CC(=O)N1CCN(c2ccc(OC[C@H]3CO[C@](Cn4ccnc4)(c4ccc(Cl)cc4Cl)O3)cc2)CC1       active
4                     Nc1ccc(S(N)(=O)=O)cc1     inactive

Note: attention shifts to another entry.
Which result was noted for this compound in the test: N=C(N=C(N)N)N1CCOCC1
inactive

###

assay.comment: Quantitative High-Throughput drug screen in 47 multiple myeloma cell lines against the NCATS MIPE library collection: H1112_PLB cell viability assay (AID 1918967; note: nearly all actives have a fitted effect of over 30% in size)
condition.details: H1112 myeloma cells viability, ATP luminescence, 48 h; series mostly up to 45.8 µM
Results filed as inconclusive are left out. Active and inactive are the calls of the source. Calls follow the shape of the dose curve; as a rule, active = well fitted cell-killing curve with a large enough effect; inconclusive = small, poorly fitted or top-dose-only effect, or effect the other way; inactive = no such curve, though single readings can be large or run the other way.
Allowed answers: class 1 for active, class 0 for inactive

Illustrative cases are given below, each with its answer.
>>> print(df.to_string())
                                   compound  label_value
0          CN1CCC(=C2c3ccccc3CCc3sccc32)CC1      class 0
1    Cc1cc(O)c2c(c1)C(=O)c1cc(O)cc(O)c1C2=O      class 0
2       COc1cc(OC)c(C(=O)CCCN2CCCC2)c(OC)c1      class 0
3      C[C@H](Cn1cnc2c(N)ncnc21)OCP(=O)(O)O      class 0
4  CN(c1nccc(=O)[nH]1)C1CCN(c2nc3ccccc3n2Cc2ccc(F)cc2)CC1      class 1

Which result was noted for this compound in the test: Cc1c(OCC(F)(F)F)ccnc1CS(=O)c1nc2ccccc2[nH]1 (configuration not stated)
class 1

Which result was noted for this compound in the test: COC(=O)N[C@H](C(=O)N[C@@H](Cc1ccccc1)[C@@H](O)CN(Cc1ccc(-c2ccccn2)cc1)NC(=O)[C@@H](NC(=O)OC)C(C)(C)C)C(C)(C)C
class 0

Which result was noted for this compound in the test: CN(C)c1ccc2nc3ccc(=[N+](C)C)cc-3sc2c1
class 1

Which result was noted for this compound in the test: c1ccc2[nH]c(-c3cscn3)nc2c1
class 0
